This collection of values is drawn from patent US8952024B2.

# System: nutsedge (purple nutsedge, Cyperus rotundus)
# PROTOCOL_DESCRIPTION: Test D pre-/postemergence plant response
# Assay type: in vivo
# MEASUREMENT_PARAMETERS: Postemergence, 31 g ai/ha; scale 0 to 100
OBSERVED_PROPERTY: Plant response rating, Nutsedge, Purple
// no unit string in output, number only

Reported Plant response rating, Nutsedge, Purple for `O=C1CCCC(O)=C1C(=O)c1cnc(-c2ccccc2)n(C2CCCCC2)c1=O` was 10

Note to self: Plant response rating, Nutsedge, Purple recorded for `O=C1CCCC(O)=C1C(=O)c1cnc(-c2cccs2)n(-c2ccccc2)c1=O` was 5

Per the record, COCCCn1c(-c2cc(F)cc(F)c2)ncc(C(=O)C2=C(O)C3CCC(C3)C2=O)c1=O (stereo not shown) has Plant response rating, Nutsedge, Purple of 0

Looking up `O=C1CCCC(O)=C1C(=O)c1cnc(-c2cccnc2)n(-c2ccccc2)c1=O` , I see its Plant response rating, Nutsedge, Purple listed as 10
